Values from patent US20210363269A1

TARGET_DESC: T1, cynomolgus SIRP-α (cynomolgus monkey, UniProt Q5TFQ8 30-148 (human entry), limits assumed)
T1 construct: also called cyno1
T1 chain: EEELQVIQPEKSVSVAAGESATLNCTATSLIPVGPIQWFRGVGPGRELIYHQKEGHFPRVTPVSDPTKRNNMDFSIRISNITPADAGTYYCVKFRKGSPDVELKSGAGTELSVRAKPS
MEASUREMENT_PROTOCOL: SPR
Doc: threshold 0.0005 s⁻¹ (exclusive). Items with koff beneath it return Criterion met; others return Criterion not met.

# BINDER, CLASS_LABEL
records = [
    ("Hum1/AB66_HC_wt (antibody, V domains shown) VH: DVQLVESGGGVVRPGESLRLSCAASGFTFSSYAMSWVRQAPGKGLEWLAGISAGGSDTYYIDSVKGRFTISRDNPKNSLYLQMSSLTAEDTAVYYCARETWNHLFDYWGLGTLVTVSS VL: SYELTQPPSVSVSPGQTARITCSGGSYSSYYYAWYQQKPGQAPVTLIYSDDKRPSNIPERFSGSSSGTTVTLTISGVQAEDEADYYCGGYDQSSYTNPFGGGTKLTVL", "Criterion met"),
    ("Hum3/AB27_HC_wt (antibody, V domains shown) VH: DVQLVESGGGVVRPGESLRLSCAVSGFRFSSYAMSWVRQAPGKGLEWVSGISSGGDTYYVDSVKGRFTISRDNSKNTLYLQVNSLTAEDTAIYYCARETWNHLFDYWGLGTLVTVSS VL: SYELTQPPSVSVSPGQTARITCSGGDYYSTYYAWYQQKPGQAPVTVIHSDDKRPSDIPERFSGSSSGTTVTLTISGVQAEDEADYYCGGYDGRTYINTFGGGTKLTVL", "Criterion met"),
    ("antibody 27 (antibody, V domains shown, also called AB27; S27) VH: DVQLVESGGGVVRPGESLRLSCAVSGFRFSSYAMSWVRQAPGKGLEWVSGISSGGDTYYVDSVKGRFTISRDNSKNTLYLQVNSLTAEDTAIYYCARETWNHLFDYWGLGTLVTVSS VL: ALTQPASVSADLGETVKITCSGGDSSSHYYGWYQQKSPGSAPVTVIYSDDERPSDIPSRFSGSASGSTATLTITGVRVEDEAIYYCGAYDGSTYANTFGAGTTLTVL", "Criterion not met"),
    ("Hum3/AB21_HC_wt (antibody, V domains shown) VH: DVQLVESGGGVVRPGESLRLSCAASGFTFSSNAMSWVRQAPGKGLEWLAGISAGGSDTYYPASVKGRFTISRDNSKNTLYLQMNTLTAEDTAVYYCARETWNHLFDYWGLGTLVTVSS VL: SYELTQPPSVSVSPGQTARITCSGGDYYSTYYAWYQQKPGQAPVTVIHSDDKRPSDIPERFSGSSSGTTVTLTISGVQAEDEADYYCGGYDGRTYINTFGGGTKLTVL", "Criterion met"),
    ("antibody 66 (antibody, V domains shown, also called AB66; S66) VH: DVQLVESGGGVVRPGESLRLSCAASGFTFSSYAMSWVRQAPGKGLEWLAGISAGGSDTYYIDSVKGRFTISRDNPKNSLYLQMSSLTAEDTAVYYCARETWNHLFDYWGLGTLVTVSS VL: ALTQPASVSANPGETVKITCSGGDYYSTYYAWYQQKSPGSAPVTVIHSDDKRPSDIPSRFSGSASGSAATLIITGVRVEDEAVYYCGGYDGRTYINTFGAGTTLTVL", "Criterion not met"),
    ("Hum1/AB27_HC_wt (antibody, V domains shown) VH: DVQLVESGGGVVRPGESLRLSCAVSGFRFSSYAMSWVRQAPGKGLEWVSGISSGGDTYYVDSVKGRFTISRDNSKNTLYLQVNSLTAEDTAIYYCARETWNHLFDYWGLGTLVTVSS VL: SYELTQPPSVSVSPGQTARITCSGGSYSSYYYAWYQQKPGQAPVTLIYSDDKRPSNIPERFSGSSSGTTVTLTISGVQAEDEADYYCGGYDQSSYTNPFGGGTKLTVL", "Criterion met"),
    ("antibody 25 (antibody, V domains shown, also called AB25; S25) VH: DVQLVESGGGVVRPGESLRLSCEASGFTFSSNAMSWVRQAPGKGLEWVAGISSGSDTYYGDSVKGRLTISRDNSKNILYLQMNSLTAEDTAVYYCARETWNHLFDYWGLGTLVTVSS VL: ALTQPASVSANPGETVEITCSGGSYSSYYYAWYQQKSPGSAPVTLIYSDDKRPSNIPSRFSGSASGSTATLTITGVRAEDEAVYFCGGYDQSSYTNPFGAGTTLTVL", "Criterion met"),
]
